Assignment: determine reported Emax at 100 µM for the given molecules.
- Test system: Hep-3B cells
- assayProtocol: Cellular assay: erythropoietin secretion in Hep-3B cells
- Format: cell-based, human
- details: Homo sapiens, Hep3B, 100 μM compound, 24 hours, percent of EPO secretion relative to assay control compound 7-[(4-Chloro-phenyl)-(5-methyl-isoxazol-3-ylamino)-methyl]-quinolin-8-ol, read-out: Cellular % EPO Stimulation
Returns: string containing the numeric result and its unit.

# input Data request, read-out Emax at 100 µM, for COc1cccc(C2CCCN(c3cc4c(=O)[nH]c(-n5cc(C(=O)O)cn5)nc4cc3Cl)C2)c1 (racemic)
# output 71%

# input Which value of Emax at 100 µM has been reported for O=C(O)c1cnn(-c2nc3cc4c(cc3c(=O)[nH]2)CCCC4)c1 in the records?
# output 75%

# input Please report the recorded Emax at 100 µM for O=C(O)c1cnn(-c2nc3ccc(-c4ccc5cc[nH]c5c4)cc3c(=O)[nH]2)c1 .
# output 85%

# input Looking for the measured Emax at 100 µM of COc1cccc2c(=O)[nH]c(-n3cc(C(=O)O)cn3)nc12 , can you help?
# output 25%

# input What Emax at 100 µM value was documented for this molecule, CCOc1ccc2nc(-n3cc(C(=O)O)cn3)[nH]c(=O)c2c1 ?
# output 30%

# input Entry O=C(O)c1cnn(-c2nc3cc(F)c(Oc4cccc(C(F)(F)F)c4)cc3c(=O)[nH]2)c1 : reported Emax at 100 µM = ?
# output 61%

# input Look up Emax at 100 µM for this molecule: O=C(O)c1cnn(-c2nc3cc(Sc4ccccc4Cl)ccc3c(=O)[nH]2)c1
# output 5%

# input What does the record list as Emax at 100 µM for CC(C)c1ccc2c(=O)[nH]c(-n3cc(C(=O)O)cn3)nc2c1 ?
# output 16%
